Organism: Rattus norvegicus
ASSAY_DETAILS: Open TG-GATES - Regimen: Daily Repeat
Format: toxicity, organism-based, Sprague-Dawley
Parameters: regimen Daily Repeat, gender Male, age 6 weeks
CONDITIONS_USED: in vivo, po, 100 mg/kg, […], tissue Blood, route gavage, dose level Low, time 14 day

MOLECULE: NC(N)=Nc1nc(CSCCC(N)=NS(N)(=O)=O)cs1 [FAMOTIDINE]
MCH [pg]: 20.9
--
MOLECULE: CCOc1ccc(NC(=O)CC(C)O)cc1 (stereo not given) [BUCETIN]
MCH [pg]: 20.1
--
MOLECULE: CCOC(=O)CCC(=O)O[C@H]1[C@H](O[C@@H]2[C@@H](C)[C@H](O[C@H]3C[C@@](C)(OC)[C@@H](O)[C@H](C)O3)[C@@H](C)C(=O)O[C@H](CC)[C@@](C)(O)[C@H](O)[C@@H](C)C(=O)[C@H](C)C[C@@]2(C)O)O[C@H](C)C[C@@H]1N(C)C [ERYTHROMYCIN ETHYLSUCCINATE]
MCH [pg]: 20.6
--
MOLECULE: COc1ccc2[nH]c([S+]([O-])Cc3ncc(C)c(OC)c3C)nc2c1 (stereo not given) [OMEPRAZOLE]
MCH [pg]: 20.5
--
MOLECULE: COC1=CC(=O)C[C@@H](C)[C@]12Oc1c(Cl)c(OC)cc(OC)c1C2=O [GRISEOFULVIN]
MCH [pg]: 20.4

----------
Entries and their TG values follow.
Organism: Rattus norvegicus
ASSAY_DETAILS: Open TG-GATES - Regimen: Daily Repeat
Format: toxicity, organism-based, Sprague-Dawley
Set-up: regimen Daily Repeat, gender Male, age 6 weeks
CONDITIONS_USED: in vivo, po, 0 mg/kg, […], tissue Plasma, route gavage, dose level Control, time 7 day
PROPERTY_NAME: TG (mg/dL)

COMPOUND: COc1ccc2[nH]c([S+]([O-])Cc3ncc(C)c(OC)c3C)nc2c1 (centres undefined) [OMEPRAZOLE]
RECORDED_NUMBER: 144.6
--
COMPOUND: CN1C(=O)CN=C(c2ccccc2)c2cc(Cl)ccc21 [DIAZEPAM]
RECORDED_NUMBER: 164.6
--
COMPOUND: NC(N)=Nc1nc(CSCCC(N)=NS(N)(=O)=O)cs1 [FAMOTIDINE]
RECORDED_NUMBER: 101.8
--
COMPOUND: NNC(=O)c1ccncc1 [ISONIAZID]
RECORDED_NUMBER: 130.2
--
COMPOUND: COC1=CC(=O)C[C@@H](C)[C@]12Oc1c(Cl)c(OC)cc(OC)c1C2=O [GRISEOFULVIN]
RECORDED_NUMBER: 112.2
--
COMPOUND: CC1=C(/C=C/C(C)=C/C=C/C(C)=C/CO)C(C)(C)CCC1 [RETINOL]
RECORDED_NUMBER: 109.6
--
COMPOUND: CC(C)OC(=O)C(C)(C)Oc1ccc(C(=O)c2ccc(Cl)cc2)cc1 [FENOFIBRATE]
RECORDED_NUMBER: 122.6
--
COMPOUND: CCOc1ccc(NC(=O)CC(C)O)cc1 (centres undefined) [BUCETIN]
RECORDED_NUMBER: 144
--
COMPOUND: CCCNC(=O)NS(=O)(=O)c1ccc(Cl)cc1 [CHLORPROPAMIDE]
RECORDED_NUMBER: 105.2

----------
Entries and their Fbg values follow.
Species on record: Rattus norvegicus
ASSAY_DETAILS: Open TG-GATES - Regimen: Single
Type: toxicity, organism-based, Sprague-Dawley
Design: regimen Single, gender Male, age 6 weeks
CONDITIONS_USED: in vivo, po, 30 mg/kg, 9 h, tissue Blood, route gavage, dose level Middle

GIVEN_SMILES: CN(C)CCN(Cc1cccs1)c1ccccn1
UNIT_LABEL: mg/dL
Fbg: 290.8
//
GIVEN_SMILES: CN(C)CCCN1c2ccccc2CCc2ccc(Cl)cc21
UNIT_LABEL: mg/dL
Fbg: 273.6
//
GIVEN_SMILES: CC1=C(/C=C/C(C)=C/C=C/C(C)=C/CO)C(C)(C)CCC1
UNIT_LABEL: mg/dL
Fbg: 317
//
GIVEN_SMILES: CN(C)CCCN1c2ccccc2CCc2ccccc21
UNIT_LABEL: mg/dL
Fbg: 290.8

----------
Organism: Rattus norvegicus
ASSAY_DETAILS: Open TG-GATES - Regimen: Daily Repeat
Format: toxicity, organism-based, Sprague-Dawley
Design: regimen Daily Repeat, gender Male, age 6 weeks
CONDITIONS_USED: in vivo, po, 0 mg/kg, […], tissue Plasma, route gavage, dose level Control, time 14 day
PROPERTY_NAME: PL (mg/dL)

COMPOUND: NC(N)=Nc1nc(CSCCC(N)=NS(N)(=O)=O)cs1
PROPERTY_NAME: PL
RECORDED_NUMBER: 146.6
//
COMPOUND: CCCNC(=O)NS(=O)(=O)c1ccc(Cl)cc1 [CHLORPROPAMIDE]
PROPERTY_NAME: PL
RECORDED_NUMBER: 164
//
COMPOUND: O=C(CCCN1CCC(O)(c2ccc(Cl)cc2)CC1)c1ccc(F)cc1
PROPERTY_NAME: PL
RECORDED_NUMBER: 161.2
//
COMPOUND: CCOC(=O)CCC(=O)O[C@H]1[C@H](O[C@@H]2[C@@H](C)[C@H](O[C@H]3C[C@@](C)(OC)[C@@H](O)[C@H](C)O3)[C@@H](C)C(=O)O[C@H](CC)[C@@](C)(O)[C@H](O)[C@@H](C)C(=O)[C@H](C)C[C@@]2(C)O)O[C@H](C)C[C@@H]1N(C)C [ERYTHROMYCIN ETHYLSUCCINATE]
PROPERTY_NAME: PL
RECORDED_NUMBER: 153.4
//
COMPOUND: CN1C(=O)CN=C(c2ccccc2)c2cc(Cl)ccc21
PROPERTY_NAME: PL
RECORDED_NUMBER: 149.2
//
COMPOUND: COC1=CC(=O)C[C@@H](C)[C@]12Oc1c(Cl)c(OC)cc(OC)c1C2=O
PROPERTY_NAME: PL
RECORDED_NUMBER: 145.8
//
COMPOUND: NNC(=O)c1ccncc1
PROPERTY_NAME: PL
RECORDED_NUMBER: 151
//
COMPOUND: CC1=C(/C=C/C(C)=C/C=C/C(C)=C/CO)C(C)(C)CCC1
PROPERTY_NAME: PL
RECORDED_NUMBER: 152

----------
Entries and their Hb values follow.
Organism: Rattus norvegicus
ASSAY_DETAILS: Open TG-GATES - Regimen: Daily Repeat
Assay type: toxicity, organism-based, Sprague-Dawley
Set-up: regimen Daily Repeat, gender Male, age 6 weeks
CONDITIONS_USED: in vivo, po, 300 mg/kg, […], tissue Blood, route gavage, dose level Middle, time 14 day

COMPOUND: COC1=CC(=O)C[C@@H](C)[C@]12Oc1c(Cl)c(OC)cc(OC)c1C2=O
Hb: 14.2 g/dL
//
COMPOUND: NC(N)=Nc1nc(CSCCC(N)=NS(N)(=O)=O)cs1
Hb: 14.4 g/dL
//
COMPOUND: CCOc1ccc(NC(=O)CC(C)O)cc1 (stereo not given)
Hb: 14.4 g/dL
//
COMPOUND: CCOC(=O)CCC(=O)O[C@H]1[C@H](O[C@@H]2[C@@H](C)[C@H](O[C@H]3C[C@@](C)(OC)[C@@H](O)[C@H](C)O3)[C@@H](C)C(=O)O[C@H](CC)[C@@](C)(O)[C@H](O)[C@@H](C)C(=O)[C@H](C)C[C@@]2(C)O)O[C@H](C)C[C@@H]1N(C)C [ERYTHROMYCIN ETHYLSUCCINATE]
Hb: 14.1 g/dL
//
COMPOUND: COc1ccc2[nH]c([S+]([O-])Cc3ncc(C)c(OC)c3C)nc2c1 (stereo not given)
Hb: 13.6 g/dL

----------
Entries and their MCH values follow.
Species: Rattus norvegicus
ASSAY_DETAILS: Open TG-GATES - Regimen: Daily Repeat
Format: toxicity, organism-based, Sprague-Dawley
Set-up: regimen Daily Repeat, gender Male, age 6 weeks
CONDITIONS_USED: in vivo, po, 300 mg/kg, […], tissue Blood, route gavage, dose level Middle, time 14 day

COMPOUND: COC1=CC(=O)C[C@@H](C)[C@]12Oc1c(Cl)c(OC)cc(OC)c1C2=O [GRISEOFULVIN]
MCH (pg): 20.9
--
COMPOUND: COc1ccc2[nH]c([S+]([O-])Cc3ncc(C)c(OC)c3C)nc2c1 (stereo not given) [OMEPRAZOLE]
MCH (pg): 20
--
COMPOUND: NC(N)=Nc1nc(CSCCC(N)=NS(N)(=O)=O)cs1 [FAMOTIDINE]
MCH (pg): 20.9
--
COMPOUND: CCOc1ccc(NC(=O)CC(C)O)cc1 (stereo not given) [BUCETIN]
MCH (pg): 20.8
--
COMPOUND: CCOC(=O)CCC(=O)O[C@H]1[C@H](O[C@@H]2[C@@H](C)[C@H](O[C@H]3C[C@@](C)(OC)[C@@H](O)[C@H](C)O3)[C@@H](C)C(=O)O[C@H](CC)[C@@](C)(O)[C@H](O)[C@@H](C)C(=O)[C@H](C)C[C@@]2(C)O)O[C@H](C)C[C@@H]1N(C)C [ERYTHROMYCIN ETHYLSUCCINATE]
MCH (pg): 20.5
